tested on: NCI-H358; experiment: relative viability (nuclei count vs DMSO), 5 days (fraction); higher = more cells survive; settings: first compound 4 µM
Measured relative viability, listed per entry for reference.
No unit in the answer, only the number.

>>> recordedresult("C[C@@H]1CN(CC(=O)Nc2ccc3c(c2)Cc2cccc(-c4cc(=O)cc(N5CCOCC5)o4)c2S3)C[C@H](C)O1 + COc1cccc2cc(-c3nc([C@H]4CC[C@H](C(=O)O)CC4)n4ncnc(N)c34)[nH]c12 [OSI-027] (partner 0.5 µM)")
0.418

q: Enter reported relative viability observed with NCI-H358 for C[C@@H]1CN(CC(=O)Nc2ccc3c(c2)Cc2cccc(-c4cc(=O)cc(N5CCOCC5)o4)c2S3)C[C@H](C)O1 + O=C(CCCCCCC(=O)Nc1ccccc1)NO [Vorinostat] (partner 1 µM)
a: 0.261

---

tested on: LXF-289; assay: relative viability (nuclei count vs DMSO), 5 days (fraction); higher = more cells survive; conditions: first compound 2.53 µM
propertyMeasured: relative viability
No unit in the answer, only the number.

// below: answered molecules
>>> recordedresult("CCCCCCCCCCCC1=C(O)C(=O)C=C(O)C1=O [Embelin] + N=C(N)NC(=N)NCCc1ccccc1 [Phenformin] (partner 250 µM)")
0.527
>>> recordedresult("CCCCCCCCCCCC1=C(O)C(=O)C=C(O)C1=O [Embelin] + CS(=O)(=O)N1CCN(Cc2cc3nc(-c4cccc5[nH]ncc45)nc(N4CCOCC4)c3s2)CC1 [Pictilisib] (partner 1 µM)")
0.75

Now look at this one.
q: Given the entry CCCCCCCCCCCC1=C(O)C(=O)C=C(O)C1=O [Embelin] + CS(=O)(=O)CCNCc1ccc(-c2ccc3ncnc(Nc4ccc(OCc5cccc(F)c5)c(Cl)c4)c3c2)o1 [Lapatinib] (partner 2 µM) , report its measured relative viability.
a: 0.978

---

test system: NCI-H1755; test: relative viability (nuclei count vs DMSO), 5 days (fraction); higher = more cells survive; conditions: first compound 0.3162 µM
propertyMeasured: relative viability
No unit in the answer, only the number.

>>> recordedresult("CC(C)Oc1cc(Nc2nc(N[C@@H](C)c3ccc(F)cn3)ncc2Cl)n[nH]1 [AZ23] + CS(=O)(=O)CCNCc1ccc(-c2ccc3ncnc(Nc4ccc(OCc5cccc(F)c5)c(Cl)c4)c3c2)o1 [Lapatinib] (partner 2 µM)")
1.05

q: Given the entry CC(C)Oc1cc(Nc2nc(N[C@@H](C)c3ccc(F)cn3)ncc2Cl)n[nH]1 [AZ23] + O=C(c1cc(Cc2n[nH]c(=O)c3ccccc23)ccc1F)N1CCN(C(=O)C2CC2)CC1 [Olaparib] (partner 8 µM) , report its measured relative viability.
a: 1

q: Same lookup for CC(C)Oc1cc(Nc2nc(N[C@@H](C)c3ccc(F)cn3)ncc2Cl)n[nH]1 [AZ23] + N=C(N)NC(=N)NCCc1ccccc1 [Phenformin] (partner 250 µM) , please.
a: 0.673

---

tested on: NCI-H1915; assay: relative viability (nuclei count vs DMSO), 5 days (fraction); higher = more cells survive; settings: first compound 0.4 µM
Using relative viability as the sorting value, the categories are LOW: < 0.4; MID: ≥ 0.4 and < 0.8; HIGH: ≥ 0.8

Check out these entries, answers already filled in.
>>> qualitativelabel("COc1cc(N2CCC(C(N)=O)CC2)ccc1Nc1nc(N)c(Cl)c(Nc2ccccc2S(=O)(=O)C(C)C)n1 [HG-5-88-01] + CS(=O)(=O)CCNCc1ccc(-c2ccc3ncnc(Nc4ccc(OCc5cccc(F)c5)c(Cl)c4)c3c2)o1 [Lapatinib] (partner 2 µM)")
"HIGH"
>>> qualitativelabel("Clc1ccc(Nc2nnc(Cc3ccncc3)c3ccccc23)cc1 [Vatalanib] + CCNC(=O)c1noc(-c2cc(C(C)C)c(O)cc2O)c1-c1ccc(CN2CCOCC2)cc1 [Luminespib] (partner 0.01 µM)")
"HIGH"
>>> qualitativelabel("C[C@@H]1CN(CC(=O)Nc2ccc3c(c2)Cc2cccc(-c4cc(=O)cc(N5CCOCC5)o4)c2S3)C[C@H](C)O1 + Cc1nc(NC(=O)N2CCC[C@H]2C(N)=O)sc1-c1ccnc(C(C)(C)C(F)(F)F)c1 [Alpelisib] (partner 2 µM)")
"HIGH"

q: Please classify: Clc1ccc(Nc2nnc(Cc3ccncc3)c3ccccc23)cc1 [Vatalanib] + Cc1cc(Nc2cc(N3CCN(C)CC3)nc(Sc3ccc(NC(=O)C4CC4)cc3)n2)n[nH]1 [Tozasertib] (partner 0.1 µM)
a: MID

q: Same lookup for COc1cc(N2CCC(C(N)=O)CC2)ccc1Nc1nc(N)c(Cl)c(Nc2ccccc2S(=O)(=O)C(C)C)n1 [HG-5-88-01] + N=C(N)NC(=N)NCCc1ccccc1 [Phenformin] (partner 250 µM) , please.
a: LOW

q: Same lookup for C[C@@H]1CN(CC(=O)Nc2ccc3c(c2)Cc2cccc(-c4cc(=O)cc(N5CCOCC5)o4)c2S3)C[C@H](C)O1 + CC(=O)c1c(C)c2cnc(Nc3ccc(N4CCNCC4)cn3)nc2n(C2CCCC2)c1=O [Palbociclib] (partner 0.5 µM) , please.
a: MID

q: Same lookup for Clc1ccc(Nc2nnc(Cc3ccncc3)c3ccccc23)cc1 [Vatalanib] + CS(=O)(=O)CCNCc1ccc(-c2ccc3ncnc(Nc4ccc(OCc5cccc(F)c5)c(Cl)c4)c3c2)o1 [Lapatinib] (partner 2 µM) , please.
a: HIGH

q: Same lookup for Clc1ccc(Nc2nnc(Cc3ccncc3)c3ccccc23)cc1 [Vatalanib] + Cc1nc(Nc2ncc(C(=O)Nc3c(C)cccc3Cl)s2)cc(N2CCN(CCO)CC2)n1 [Dasatinib] (partner 0.075 µM) , please.
a: LOW

q: Same lookup for COc1cc(N2CCC(C(N)=O)CC2)ccc1Nc1nc(N)c(Cl)c(Nc2ccccc2S(=O)(=O)C(C)C)n1 [HG-5-88-01] + Nc1ncn([C@H]2C[C@H](O)[C@@H](CO)O2)c(=O)n1 [Decitabine] (partner 2 µM) , please.
a: LOW

---

tested on: NCI-H1944; experiment: relative viability (nuclei count vs DMSO), 5 days (fraction); higher = more cells survive; conditions: first compound 1.265 µM
propertyMeasured: relative viability
No unit in the answer, only the number.

q: Given the entry COc1cc(N2CCC(C(N)=O)CC2)ccc1Nc1nc(N)c(Cl)c(Nc2ccccc2S(=O)(=O)C(C)C)n1 [HG-5-88-01] + O=C(CCCCCCC(=O)Nc1ccccc1)NO [Vorinostat] (partner 1 µM) , report its measured relative viability.
a: 0.55

---

test system: NCI-H2170; assay: relative viability (nuclei count vs DMSO), 5 days (fraction); higher = more cells survive; conditions: first compound 0.4 µM
Measured relative viability, listed per entry for reference.
No unit in the answer, only the number.

// below: answered compounds
>>> recordedresult("Clc1ccc(Nc2nnc(Cc3ccncc3)c3ccccc23)cc1 [Vatalanib] + Cc1nc(Nc2ncc(C(=O)Nc3c(C)cccc3Cl)s2)cc(N2CCN(CCO)CC2)n1 [Dasatinib] (partner 0.075 µM)")
0.556
>>> recordedresult("Clc1ccc(Nc2nnc(Cc3ccncc3)c3ccccc23)cc1 [Vatalanib] + CC(=O)Nc1cccc(-n2c(=O)n(C3CC3)c(=O)c3c(Nc4ccc(I)cc4F)n(C)c(=O)c(C)c32)c1 [Trametinib] (partner 0.02 µM)")
0.856
>>> recordedresult("C[C@@H]1CN(CC(=O)Nc2ccc3c(c2)Cc2cccc(-c4cc(=O)cc(N5CCOCC5)o4)c2S3)C[C@H](C)O1 + Cc1nc(NC(=O)N2CCC[C@H]2C(N)=O)sc1-c1ccnc(C(C)(C)C(F)(F)F)c1 [Alpelisib] (partner 2 µM)")
0.727
>>> recordedresult("Clc1ccc(Nc2nnc(Cc3ccncc3)c3ccccc23)cc1 [Vatalanib] + O=C(CCCCCCC(=O)Nc1ccccc1)NO [Vorinostat] (partner 1 µM)")
0.825
>>> recordedresult("COc1cc(N2CCC(C(N)=O)CC2)ccc1Nc1nc(N)c(Cl)c(Nc2ccccc2S(=O)(=O)C(C)C)n1 [HG-5-88-01] + O=C(CCCCCCC(=O)Nc1ccccc1)NO [Vorinostat] (partner 1 µM)")
0.773

q: Enter reported relative viability observed with NCI-H2170 for C[C@@H]1CN(CC(=O)Nc2ccc3c(c2)Cc2cccc(-c4cc(=O)cc(N5CCOCC5)o4)c2S3)C[C@H](C)O1 + COc1cccc2cc(-c3nc([C@H]4CC[C@H](C(=O)O)CC4)n4ncnc(N)c34)[nH]c12 [OSI-027] (partner 0.5 µM)
a: 0.581

q: Same lookup for C[C@@H]1CN(CC(=O)Nc2ccc3c(c2)Cc2cccc(-c4cc(=O)cc(N5CCOCC5)o4)c2S3)C[C@H](C)O1 + Nc1ncn([C@H]2C[C@H](O)[C@@H](CO)O2)c(=O)n1 [Decitabine] (partner 2 µM) , please.
a: 0.508

---

tested on: NCI-H1755; assay: relative viability (nuclei count vs DMSO), 5 days (fraction); higher = more cells survive; conditions: first compound 0.4 µM
propertyMeasured: relative viability
No unit in the answer, only the number.

>>> recordedresult("Clc1ccc(Nc2nnc(Cc3ccncc3)c3ccccc23)cc1 [Vatalanib] + COc1cccc2cc(-c3nc([C@H]4CC[C@H](C(=O)O)CC4)n4ncnc(N)c34)[nH]c12 [OSI-027] (partner 0.5 µM)")
0.705
>>> recordedresult("COc1cc(N2CCC(C(N)=O)CC2)ccc1Nc1nc(N)c(Cl)c(Nc2ccccc2S(=O)(=O)C(C)C)n1 [HG-5-88-01] + O=C(c1cc(Cc2n[nH]c(=O)c3ccccc23)ccc1F)N1CCN(C(=O)C2CC2)CC1 [Olaparib] (partner 8 µM)")
0.874
>>> recordedresult("C[C@@H]1CN(CC(=O)Nc2ccc3c(c2)Cc2cccc(-c4cc(=O)cc(N5CCOCC5)o4)c2S3)C[C@H](C)O1 + N=C(N)NC(=N)NCCc1ccccc1 [Phenformin] (partner 250 µM)")
0.698

Now look at this one.
q: Given the entry COc1cc(N2CCC(C(N)=O)CC2)ccc1Nc1nc(N)c(Cl)c(Nc2ccccc2S(=O)(=O)C(C)C)n1 [HG-5-88-01] + N=C(N)NC(=N)NCCc1ccccc1 [Phenformin] (partner 250 µM) , report its measured relative viability.
a: 0.605

The reported numbers originate from the supplement of paper PMC10307832.
